# System: skin biopsy from the same donor
# procedureDetails: Skin explant assay: histological damage grade, compound-treated DC + autologous T cells + autologous skin
# measurementConditions: Table 2; positive (Grade II-IV) explants / explants tested
Known Total positive of a selection of compounds

[[record]]
compound = "CC(C)O [IP, Isopropanol]"
subjectoftest = "skin biopsy from the same donor"
observed = "0/5"

[[record]]
compound = "Nc1nnc(-c2cccc(Cl)c2Cl)c(N)n1 [L amot, Lamotrigine]"
subjectoftest = "skin biopsy from the same donor"
observed = "4/4"

[[record]]
compound = "CN(C)C(=N)N=C(N)N [Met, Metformin]"
subjectoftest = "skin biopsy from the same donor"
observed = "0/2"


Ask: Returns the measured Total positive for the input compound. Input: CN(C)C=O [DMT, Dimethyl formamide]
Reply: 0/3

Ask: Also need C[S+](C)[O-] [DMSO, Dimethyl sulfoxide] , thanks.
Reply: 1/3

Ask: And CCOC(=O)c1ccc(N)cc1 [Bz, Benzocaine] ?
Reply: 1/1

Ask: How about OCC(O)CO [Gly, Glycerol] ?
Reply: 1/4

Ask: Now consider CN(Cc1cnc2nc(N)nc(N)c2n1)c1ccc(C(=O)N[C@@H](CCC(=O)O)C(=O)O)cc1 [MTX, Methotrexate] .
Reply: 0/1′

Ask: Let us now turn to Sc1nc2ccccc2s1 [2Mercp, 2-mercaptobenzothiazole]
Reply: 3/4

Ask: Another compound to check: N[C@@H](CCC(=O)O)C(=O)O [LGA, Glutamic Acid]
Reply: 1/3

Ask: Check CCC(C)(C)C(=O)O[C@H]1C[C@@H](C)C=C2C=C[C@H](C)[C@H](CC[C@@H]3C[C@@H](O)CC(=O)O3)[C@H]21 [SimV, Simvastatin] too.
Reply: 1/3

* * *

# Test system: skin biopsy from the same donor
# procedureDetails: Skin explant assay: histological damage grade, compound-treated DC + autologous T cells + autologous skin
# measurementConditions: Table 2; concentrations of Table 1; positive grade
Entries annotated with measured Grade II (number of skin explants with this histological grade)
Give a plain numeric answer without units written out.

// solved cases for Grade II (number of skin explants with this histological grade) follow
[[record]]
molecule = "N[C@@H](CCC(=O)O)C(=O)O [LGA, Glutamic Acid]"
subjectoftest = "skin biopsy from the same donor"
observed = 1

[[record]]
molecule = "C[S+](C)[O-] [DMSO, Dimethyl sulfoxide]"
subjectoftest = "skin biopsy from the same donor"
observed = 1


Ask: So what's the measured Grade II (number of skin explants with this histological grade) for this one? Sc1nc2ccccc2s1 [2Mercp, 2-mercaptobenzothiazole]
Reply: 1

Ask: Now try Nc1nnc(-c2cccc(Cl)c2Cl)c(N)n1 [L amot, Lamotrigine] .
Reply: 1

* * *

Attribute: Grade I (number of skin explants with this histological grade)
# Test system: skin biopsy from the same donor
# procedureDetails: Skin explant assay: histological damage grade, compound-treated DC + autologous T cells + autologous skin
# measurementConditions: Table 2; concentrations of Table 1; Grade I = negative
Enter a number only.

Consider the following illustrative entries.
[[record]]
compound = "C[S+](C)[O-] [DMSO, Dimethyl sulfoxide]"
observed = 2

[[record]]
compound = "Sc1nc2ccccc2s1"
observed = 1

[[record]]
compound = "CCC(C)(C)C(=O)O[C@H]1C[C@@H](C)C=C2C=C[C@H](C)[C@H](CC[C@@H]3C[C@@H](O)CC(=O)O3)[C@H]21"
observed = 2

[[record]]
compound = "CN(Cc1cnc2nc(N)nc(N)c2n1)c1ccc(C(=O)N[C@@H](CCC(=O)O)C(=O)O)cc1 [MTX, Methotrexate]"
observed = 1

[[record]]
compound = "CN(C)C(=N)N=C(N)N"
observed = 2

[[record]]
compound = "CN(C)C=O [DMT, Dimethyl formamide]"
observed = 3


Ask: Name the reported Grade I (number of skin explants with this histological grade) value associated with the compound `N[C@@H](CCC(=O)O)C(=O)O`
Reply: 2
